# Test system: Staphylococcus aureus
# assayName: Antibacterial activity against gentamicin-resistant Staphylococcus aureus ATCC 33592 after 24 hrs by spectrophotometric analysis
# Format: functional, organism-based
# assayContext: Staphylococcus aureus, ATCC 33592, 24 h
log10 of MIC reference
Base-10 log of MIC, unit µg/mL.

Past entries and their recorded results:
| compound | log10 of MIC |
| --- | --- |
| COc1ccc(C(c2nnnn2C(C)(C)C)N2CCN(c3cc4c(cc3F)c(=O)c(C(=O)O)cn4Cc3ccc(C(F)(F)F)cc3)CC2)c(OC)c1OC (configuration not stated) | 1.70 |
| CCn1cc(C(=O)O)c(=O)c2cc(F)c(N3CCN(C(c4ccc(F)cc4)c4nnnn4C(C)(C)C)CC3)cc21 (configuration not stated) | -0.30 |
| CCn1cc(C(=O)O)c(=O)c2cc(F)c(N3CCN(C(c4ccc(C(C)C)cc4)c4nnnn4C4CCCCC4)CC3)cc21 (configuration not stated) | 0.20 |

Provide only the value of recorded log10 of MIC for CCn1cc(C(=O)O)c(=O)c2cc(F)c(N3CCN(C(c4cccc5ccccc45)c4nnnn4C(C)(C)C)CC3)cc21 (configuration not stated)
-0.15

Provide only the value of recorded log10 of MIC for O=C(O)c1cn(Cc2ccc(C(F)(F)F)cc2)c2cc(N3CCN(C(c4ccco4)c4nnnn4C4CCCCC4)CC3)c(F)cc2c1=O (configuration not stated)
-0.11

Provide only the value of recorded log10 of MIC for O=C(O)c1cn(Cc2ccc(C(F)(F)F)cc2)c2cc(N3CCN(C(c4ccccc4)c4nnnn4C4CCCCC4)CC3)c(F)cc2c1=O (configuration not stated)
1.61
